Target: Sphingosine 1-phosphate receptor 1 (Homo sapiens)
Assay: direct activation of human S1P1 – cell-based, agonist mode, 60K MLSMR set, dose response (AID 468)
Conditions: inactive by the depositor's call
Collected EC50 values appear next to each entry.
MEASURE_NAME: EC50 (µM)

- c1ccc(-c2ccc(-c3nc(-c4ccncc4)no3)cc2)cc1: 10.4
- O=C(Nc1nc(-c2nc3ccccc3s2)cs1)c1ccc(S(=O)(=O)N2CCOCC2)cc1 [MLS000087900]: 17.6
- CC(=O)N1C=CN(C(C)=O)C(c2cn(C)c3ccccc23)C1c1cn(C)c2ccccc12 (stereo not given): 26.2
- CCSc1nc(N2CCOCC2)c2c(c1C#N)CCCC2: 46.8
- CCN(CC)C(=O)Oc1ccc2c(=O)c(-c3ccc(OC)cc3)coc2c1 [MLS000083046]: 12.9
- CC(C)[C@H](NC(=O)OC(C)(C)C)c1nnc(SCC(=O)Nc2ccc(Br)cc2)o1 [MLS000040800]: 14.7
- CN(Cc1cccs1)c1ncnc2sccc12 [MLS000056228]: 13
- CCn1c(NC(=O)c2cccc(Cn3cc(Cl)cn3)c2)nc2ccccc21: 14
- COc1ccccc1-c1cc(C(=O)Nc2cc(C)nn2-c2ccccc2)no1: 47
- CCCCOc1ccc(S(=O)(=O)n2c(C)nc3ccccc32)cc1: 23.2

====

Target: Sphingosine 1-phosphate receptor 1 (Homo sapiens, UniProt P21453)
Sequence (P21453 whole entry): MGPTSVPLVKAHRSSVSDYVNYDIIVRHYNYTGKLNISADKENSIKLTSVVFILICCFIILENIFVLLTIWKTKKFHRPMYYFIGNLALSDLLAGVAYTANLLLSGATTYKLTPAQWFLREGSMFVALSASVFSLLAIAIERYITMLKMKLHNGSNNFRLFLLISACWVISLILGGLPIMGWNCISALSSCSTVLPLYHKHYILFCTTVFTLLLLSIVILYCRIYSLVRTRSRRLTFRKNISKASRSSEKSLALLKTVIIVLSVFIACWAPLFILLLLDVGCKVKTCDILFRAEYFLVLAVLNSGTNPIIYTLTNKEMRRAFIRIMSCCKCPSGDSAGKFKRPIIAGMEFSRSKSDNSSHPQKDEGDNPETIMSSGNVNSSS
Assay: direct activation of human S1P1 – cell-based, agonist mode, 60K MLSMR set, dose response (AID 468)
Conditions: inactive by the depositor's call
MEASURE_NAME: EC50

- CCN(CC)C(=O)Oc1ccc2c(=O)c(-c3ccccc3)coc2c1: 37.2 µM
- CCOc1ccccc1COC(=O)c1cccc(-n2cnnn2)c1: 22.9 µM
- Cc1nc2ncnn2c(N2CCN(c3cccc(C(F)(F)F)c3)CC2)c1C: 14.1 µM
- CCOC(=O)C1CCN(c2ncnc3c2oc2ccccc23)CC1: 12 µM
- CC(=O)c1sc(NC(=O)C2(F)C(F)(F)C(F)(F)C(F)(F)C(F)(F)C2(F)F)nc1C: 30.4 µM
- Cc1cc(C(=O)CN2C(=O)c3ccccc3C2=O)c(C)n1Cc1cccs1: 17.4 µM
- Cc1nn(Cc2ccc(Cl)c(Cl)c2)c(C)c1NC(=O)c1cc(C2CC2)on1: 10.6 µM
- CCN(CC)S(=O)(=O)c1cc(C(=O)Nc2ccncc2)ccc1Cl: 52.3 µM
- Cc1nc(C)c(C(=O)Nc2ccc(Oc3ccccc3)cc2)o1: 11 µM
- Cc1nn(Cc2ccccc2)c(C)c1C(=O)OCC(=O)c1cc(C)n(C2CC2)c1C: 13.9 µM
- Cc1ccc(C(=O)Nc2nc(COc3ccccc3)cs2)s1: 12.1 µM
- O=c1oc2cc(Br)ccc2n1CSC1=NCCS1: 12.9 µM
- C=CCOC(=O)c1[nH]c2c(c1C)C(=O)CC(c1cc(OC)c(OC)c(OC)c1)C2 (configuration not stated): 10.7 µM
- COc1ccc2ncn(-c3ccccc3)c2c1: 16.1 µM
- Cc1cccc(-c2nc(CSCC(=O)N3CCN(c4ccccn4)CC3)c(C)o2)c1: 13.6 µM
- CC1=C(/C=C/C(C)=C/C=C/C(C)=C/C(=O)O)C(C)(C)CCC1 [ALL-TRANS-RETINOIC ACID]: 25.4 µM
- FC(F)(F)c1ccc(N2CCN(c3cc(-c4ccccc4)nc4ncnn34)CC2)nc1: 31.9 µM
- COc1ccc(S(=O)(=O)Cc2ccc(C(=O)N3CCN(c4ccc(Cl)cc4)CC3)o2)cc1: 13.7 µM
- CC1CCc2nc(NC(=O)CSc3nc4ccccc4o3)sc2C1 (configuration not stated): 57.8 µM
- Cc1onc(-c2ccccc2Cl)c1C(=O)Oc1cc(N)n(S(=O)(=O)c2ccc(F)cc2)n1: 18.1 µM
- O=S1(=O)C=C(Sc2nnc(-c3ccccc3)o2)c2ccccc21: 20.6 µM
- COc1ccc(CNc2cc(C)nc3ncnn23)c(OC)c1: 16.3 µM
- CC(C)Cn1c(N)c(C(=O)CSc2ccc3c(c2)OCCO3)c(=O)n(C)c1=O: 24 µM
- Cc1cc(C(=O)N2CCN(C(c3ccccc3)c3ccccc3)CC2)no1: 25.5 µM
- O=C(OC1CCCCC1)c1ccc(NC(=O)c2ccco2)cc1: 13.4 µM
- Cc1ccccc1OCC(=O)Nc1ccc(N2CCN(C(=O)C(C)C)CC2)c(Cl)c1: 16.8 µM
- COc1cccc(-c2cc(C(=O)Nc3ccccc3SC)no2)c1: 18 µM
- COC(=O)c1ccc(C(c2c(N)n(CC(C)C)c(=O)[nH]c2=O)N2CCN(c3ccccc3)CC2)cc1 (configuration not stated): 95 µM
- COc1ccc(-c2cc(C(=O)NC3CCCC3)no2)cc1OC: 15.8 µM
- CC1=CC(C)(C)Nc2ccc(OC(=O)c3cccnc3)cc21: 11.4 µM
- COc1ccc(-c2nc(-c3cccc(C(F)(F)F)c3)no2)cc1OC: 22.3 µM
- Cc1cc(N2CCN(C(c3ccccc3)c3ccccc3)CC2)n2ncnc2n1: 14.5 µM
- O=C(CSc1nnc(-c2ccc(Cl)cc2)n1Cc1ccco1)c1cccs1: 17.3 µM
- Cc1cccc(-c2nc(C#N)c(NC3CCCCC3)o2)c1: 13.4 µM
- Cc1nc2sc(-c3ccccc3)cc2c(=O)n1-n1cccc1: 22.2 µM
- O=C(C1CCC1)N1CCc2cc(S(=O)(=O)Nc3ccc4c(c3)OCCO4)ccc21: 38.9 µM
- O=S(=O)(CCSc1ccccn1)c1nc2ccccc2s1: 10.4 µM
- Cc1ccc(Cl)cc1N1CCN(C(=O)COc2ccc(S(=O)(=O)NC(C)C)cc2)CC1: 12 µM
- CC(=O)N1CCCc2cc(S(=O)(=O)NCCC3=CCCCC3)ccc21: 14.5 µM
- COc1ccc(Cc2nc(-c3ccc(-n4cccc4)cc3)no2)cc1OC: 13.7 µM
- N#Cc1nc(COc2ccc(Cl)cc2Cl)oc1N1CCN(c2ccccc2)CC1: 13.9 µM
- CCCn1c(CNc2ccc(Br)cc2)nc2ccccc21: 12.1 µM

====

Molecular target: Sphingosine 1-phosphate receptor 1 (Homo sapiens)
Experiment: direct activation of human S1P1 – cell-based, agonist mode, 60K MLSMR set, dose response (AID 468)
MEASURE_NAME: EC50

• CC(C)N1C(=O)CCC1C(=O)N1CCC(Cc2ccccc2)CC1 (stereo unspecified) = > 95 µM
• COc1ccc(C(c2c(O)ccc3ccccc23)N2CCOCC2)c(OC)c1 (stereo unspecified) = 4.94 µM
• c1csc(CCNc2ncnc3sc4c(c23)CCC4)c1 = 1.24 µM
• Clc1ccc(CCNc2[nH]cnc3ncnc2-3)cc1 = 9.86 µM
• CCC(NCCOc1ccc(Cl)cc1)=C1C(=O)N(C)C(=O)N(C)C1=O = 5.04 µM
• CC(C)c1cc(C(F)(F)F)n2nc(C(=O)Nc3ccc4c(c3)OCO4)cc2n1 = 2.6 µM
• O=S(=O)(NCc1ccncc1)c1ccc(Br)s1 = 2.63 µM
• Clc1ccc(NCn2cncn2)nc1 = > 95 µM
• COc1ccc2[nH]c(=O)c3c(c2c1)OC(C)(C)C=C3 = 4.51 µM
• CC(=O)c1c(C)[nH]c(C(=O)OCCCCN2C(=O)c3ccccc3C2=O)c1C = 2.04 µM
• COc1cccc(N2CCN(c3ncnc4c3[nH]c3ccccc34)CC2C)c1 (stereo unspecified) = 3.73 µM

====

Biological target: Sphingosine 1-phosphate receptor 1 (Homo sapiens, UniProt P21453)
Test: direct activation of human S1P1 – cell-based, agonist mode, 60K MLSMR set, dose response (AID 468)
MEASURE_NAME: EC50 (µM)

- COc1ccc(-c2nc3cc(NC(=O)Cc4ccc(OC)c(OC)c4)ccc3o2)cc1: 8.03
- Cc1cc(C(=O)CSc2nnc(-c3ccccc3)n2-c2ccccc2)c(C)n1-c1nnc[nH]1: 5.27
- CCOc1ccc(-c2nc(-c3ccccc3)no2)cc1OCC: 0.147
- O=C(Nc1nccs1)c1ccc(S(=O)(=O)NCC2CCCCC2)cc1: 8.02
- OC1(c2cccc(C(F)(F)F)c2)CCN(c2ncnc3c2[nH]c2ccc(F)cc23)CC1: 3.91
- Cc1occc1C(=O)N1CCN(c2ccc(Cl)c(Cl)c2)CC1: 4.47
- CCOc1ccc(-c2nc(-c3ccc(OC)cc3)no2)cc1OCC: 0.568
- OCC12C=CC(O1)c1c2c(O)n(-c2ccccc2-c2ccccc2)c1O (stereo unspecified): 5.47
- Fc1ccc2[nH]c3c(N4CCSCC4)ncnc3c2c1 [MLS000078401]: 6.12
- COc1ccccc1-n1nnnc1S(=O)(=O)Cc1ccc(Cl)cc1: 3.61
- c1ccc2c(c1)CCN(c1ncnc3c1[nH]c1ccccc13)C2 [SMR000039631]: 1.19
- c1ccc(N2CCN(Cc3ccnc4ccccc34)CC2)cc1: 9.24
- CCN(CC)c1ccc2cc(NC(=O)CCC(=O)O)c(=O)oc2c1: 9.78
- Cc1nc2ccccc2c2oc(C(=O)NCC3COc4ccccc4O3)cc12 (stereo unspecified) [MLS000118430]: 8.06
- CC1=NC(=O)NC(c2ccccc2)C1C(=O)OCc1ccc2c(c1)OCO2 (stereo unspecified): 1.84
- CCOC(=O)c1c(C)[nH]c(C(=O)C(C)OC(=O)c2cccc(OCc3c(C)noc3C)c2)c1C (stereo unspecified) [MLS000054923]: 4.37
- CC(Oc1ccccc1Br)C(=O)N1CCc2ccccc21 (stereo unspecified) [1-[2-(2-bromophenoxy)propanoyl]indoline]: 6.81
- Cc1cc(C(=O)Nc2sc(C)c(-c3ccc(F)cc3)c2C(N)=O)no1 [MLS000043467]: 6.79
- Oc1ccc(C2NCc3ccccc3-n3cccc32)cc1Cl (stereo unspecified): 3.04
- Cn1nc(C(C)(C)C)cc1C(=O)NCc1ccc(N2CCCC2=O)cc1: 3.86
